- System: Klebsiella pneumoniae
- protocol_details: Antimicrobial activity against Klebsiella pneumoniae ATCC 13831 after 6 hrs
- Format: functional
- condition_parameters: ATCC 13831, 6 h
parameter_measured: MIC (µg/mL)
Give your result in µg/mL as a bare value.

COc1ccc(-c2cc3ccccc3[nH]2)cc1 | 313
COc1ccc2[nH]cc(-c3ccccc3C=O)c2c1 | 313
COc1ccc2[nH]c(-c3ccccc3C)cc2c1 | 313
COc1ccc2[nH]cc(-c3ccccc3C)c2c1 | 313
COc1ccc2[nH]cc(-c3ccccc3)c2c1 | 313
COc1ccc2[nH]c(-c3ccccc3)cc2c1 | 469
c1ccc2[nH]c(-c3cccc4ccccc34)cc2c1 | 313
COc1cc(-c2c[nH]c3ccccc23)c(OC)cc1Br | 313
COc1ccc(-c2cc3cc(OC)ccc3[nH]2)cc1 | 313
COc1cc(-c2cc3ccccc3[nH]2)cc(OC)c1OC | 391

The compound identified as `COc1ccc2[nH]cc(-c3ccccc3C(C)=O)c2c1` registered its MIC at 313
